# experimental system: JAK2 (Homo sapiens)
# Sequence (O60674 whole entry): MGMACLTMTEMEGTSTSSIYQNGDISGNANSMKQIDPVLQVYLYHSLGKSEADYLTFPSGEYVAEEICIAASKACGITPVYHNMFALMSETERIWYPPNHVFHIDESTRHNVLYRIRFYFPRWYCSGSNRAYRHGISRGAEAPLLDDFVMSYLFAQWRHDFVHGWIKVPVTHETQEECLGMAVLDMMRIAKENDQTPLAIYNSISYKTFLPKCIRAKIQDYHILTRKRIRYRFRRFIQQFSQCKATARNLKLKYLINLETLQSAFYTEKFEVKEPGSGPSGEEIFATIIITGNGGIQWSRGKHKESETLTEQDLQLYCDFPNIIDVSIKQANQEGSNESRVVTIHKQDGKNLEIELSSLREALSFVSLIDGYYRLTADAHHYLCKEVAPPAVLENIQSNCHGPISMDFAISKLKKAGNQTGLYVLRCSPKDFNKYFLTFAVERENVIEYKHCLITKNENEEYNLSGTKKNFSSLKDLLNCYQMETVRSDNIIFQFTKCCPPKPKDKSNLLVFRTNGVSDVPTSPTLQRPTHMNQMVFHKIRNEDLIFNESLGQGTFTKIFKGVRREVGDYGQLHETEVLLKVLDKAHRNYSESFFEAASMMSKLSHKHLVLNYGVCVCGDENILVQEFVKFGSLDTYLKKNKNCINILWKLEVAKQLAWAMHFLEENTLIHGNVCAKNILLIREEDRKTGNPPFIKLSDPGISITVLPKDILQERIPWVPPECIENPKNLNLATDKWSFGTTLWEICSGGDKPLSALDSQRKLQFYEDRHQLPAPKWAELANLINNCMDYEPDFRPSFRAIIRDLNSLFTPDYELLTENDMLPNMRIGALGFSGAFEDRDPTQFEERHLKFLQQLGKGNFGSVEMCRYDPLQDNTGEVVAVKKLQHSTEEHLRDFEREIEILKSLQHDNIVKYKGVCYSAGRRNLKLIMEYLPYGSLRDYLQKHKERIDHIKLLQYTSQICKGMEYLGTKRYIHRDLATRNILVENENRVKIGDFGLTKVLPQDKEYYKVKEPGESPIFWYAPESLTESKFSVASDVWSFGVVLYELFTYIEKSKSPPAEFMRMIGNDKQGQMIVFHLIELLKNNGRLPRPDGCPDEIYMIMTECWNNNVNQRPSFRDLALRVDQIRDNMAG
# method: JAK kinase inhibition biochemical assay (Kinase-Glo Plus luminescence), JAK2
# stated conditions: 10 μM ATP
endpoint label: IC50 (nM)
Please reply with the bare figure in nM and do not write the unit itself.

{"columns": ["substance smiles", "value measured"],
 "data": [
  ["N#CCC1(n2cc(-c3ncnc4[nH]ccc34)cn2)CN(C2CCN(C(=O)c3ccnc(C(F)(F)F)c3F)CC2)C1", 69]
]}

Attention now turns to another entry.
Entry `Nc1nc2cccc(-c3ccc(CN4CCS(=O)(=O)CC4)cc3)n2n1` : reported IC50 = ?
2160

====

# Tested on: CD19 CAR T cells
# method: CAR T cell cytokine production (Luminex) under CD19 K562, KIP-1 or CD2/3/28 stimulation
# stated conditions: Homo sapiens, T-cell, 72 h, read-out: Suppression of cytokine production, IL-10 (IC50), CD3/CD28 stimulation, 72 h
Catalogue of IC50 readings, one per entry.

Solved cases (3 shown):
{"columns": ["compound", "IC50"],
 "data": [
  ["O=C(Nc1nc2cccc(-c3ccc(CN4CCS(=O)(=O)CC4)cc3)n2n1)C1CC1 [filgotinib]", "2010 nM"],
  ["C[C@@H]1C[C@H]2[C@@H]3CCC4=CC(=O)C=C[C@]4(C)[C@@]3(F)[C@@H](O)C[C@]2(C)[C@@]1(O)C(=O)CO [dexamethasone]", "> 10000 nM"],
  ["CC[C@@H]1CN(C(=O)NCC(F)(F)F)C[C@@H]1c1cnc2cnc3[nH]ccc3n12 [upadacitinib]", "< 100 nM"]
]}

Consider the additional compound presented here.
If you can, please state the reported IC50 value of N#CCC1(n2cc(-c3ncnc4[nH]ccc34)cn2)CN(C2CCN(C(=O)c3ccnc(C(F)(F)F)c3F)CC2)C1 [itacitinib] .
< 100 nM

====

# Tested on: CD19 CAR T cells
# method: CAR T cell cytokine production (Luminex) under CD19 K562, KIP-1 or CD2/3/28 stimulation
# stated conditions: read-out: Suppression of cytokine production, MIP-1a (IC50); CD3/CD28 stimulation, 72 h
endpoint label: IC50

{"columns": ["substance smiles", "value measured"],
 "data": [
  ["C[C@H]1C[C@@H]2[C@H]([C@@H](O)C[C@@]3(C)[C@H]2CC[C@]3(O)C(=O)CO)[C@@]2(C)C=CC(=O)C=C12", "> 10 µM"]
]}

Let's switch to this compound now.
Which IC50 is reported for this compound? `Nc1nc2cccc(-c3ccc(CN4CCS(=O)(=O)CC4)cc3)n2n1`
> 10 µM

====

Recorded pSTAT3, one value per entry.
# Test system: phospho-STAT panel (pSTAT3/4/5), CD3+ T cells
# method: phospho-STAT induction by IL-6, MesoScale Discovery phospho-STAT panel
# Format: cell-based, human
# stated conditions: lower dose titration, CD3+ T cells, IL-6 + drug 12.5 nM; MSD signal (No stim. 123, IL-6 alone 5767)
Just the number, please, no unit attached.

Here's what some known entries look like.
{"columns": ["substance smiles", "pSTAT3"],
 "data": [
  ["C[C@@H]1CCN(C(=O)CC#N)C[C@@H]1N(C)c1ncnc2[nH]ccc12", 3998],
  ["O=C(Nc1nc2cccc(-c3ccc(CN4CCS(=O)(=O)CC4)cc3)n2n1)C1CC1", 6547],
  ["CC[C@@H]1CN(C(=O)NCC(F)(F)F)C[C@@H]1c1cnc2cnc3[nH]ccc3n12", 2560]
]}

Here is the next item to consider.
# query: pSTAT3 | item `CCS(=O)(=O)N1CC(CC#N)(n2cc(-c3ncnc4[nH]ccc34)cn2)C1` | system: phospho-STAT panel (pSTAT3/4/5), CD3+ T cells
2528
